System: Balb/c splenocytes (resting lymphocytes)
Assay notes: Lymphocyte viability (LcV) assay
Assay type: cell-based, murine
Condition notes: unstimulated Balb/c splenocytes, MTT; highest concentration 10 μg/mL
Numbered stars: 1 amine (or outer) side, 2 acyl side, 3 side chain; on linkers, the order of the positions; unused ones are H or OH. Bridge positions count the residues as written; N and C are the ends. Square brackets hold non-standard residues; d marks the D form. Peptide text beside a SMILES is read from it. * marks the point of attachment. X1 = CC[C@H](C)[C@@H](N[*:1])[C@@H](O)CC(=O)O[C@H](C(=O)[C@H](C)C(=O)[*:2])C(C)C; X6 = CC[C@H](C)[C@@H](N[*:1])[C@H](O)CC(=O)O[C@H](C(=O)[C@H](C)C(=O)[*:2])C(C)C; NMeY = CN[C@@H](Cc1ccc(O)cc1)C(=O)O; Stearoyl = CCCCCCCCCCCCCCCCCC(=O)*; dNMeL = CN[C@H](CC(C)C)C(=O)O; pGlu = O=C1CC[C@@H](C(=O)O)N1; Cbz = O=C(OCc1ccccc1)*; Lac = C[C@H](O)C(=O)O; Propionyl = CCC(=O)*
cytoxicity to lymphocytes LcV, LC50 by entry:
Measured parameter: cytoxicity to lymphocytes LcV, LC50

INSERT INTO results (molecule, measured_parameter, result) VALUES
  ('CC[C@H](C)[C@H]1NC(=O)[C@@H](NC(=O)[C@@H](CC(C)C)N(C)C(=O)[C@@H]2CCCN2C(=O)[C@H](C)OC(=O)[C@H](CCC(N)=O)NC(=O)[C@@H]2CCC(=O)N2)[C@@H](C)OC(=O)[C@H](Cc2ccc(OC)cc2)N(C)C(=O)[C@@H]2CCCN2C(=O)[C@H](CC(C)C)NC(=O)[C@@H](C)C(=O)[C@H](C(C)C)OC(=O)C[C@@H]1O [Compound 38, Didemnin M] ([pGlu]Q[Lac]P[dNMeL]T[X1]LP[NMeY](Me); ester 6-C)', 'cytoxicity to lymphocytes LcV, LC50', '> 10 µg/mL'),
  ('CC[C@H](C)[C@H]1NC(=O)[C@@H](NC(=O)[C@@H](CC(C)C)N(C)C(=O)OCc2ccccc2)[C@@H](C)OC(=O)[C@H](Cc2ccc(OC)cc2)N(C)C(=O)[C@@H]2CCCN2C(=O)[C@H](CC(C)C)NC(=O)[C@@H](C)C(=O)[C@H](C(C)C)OC(=O)C[C@H]1O [Compound 4, Z-[(3R,4R,5S)Ist^2]Didemnin A] (Cbz-[dNMeL]T[X6]LP[NMeY](Me); ester 2-C)', 'cytoxicity to lymphocytes LcV, LC50', '9.70 µg/mL'),
  ('CCC(=O)N(C)[C@H](CC(C)C)C(=O)N[C@@H]1C(=O)N[C@H]([C@@H](C)CC)[C@@H](O)CC(=O)O[C@@H](C(C)C)C(=O)[C@H](C)C(=O)N[C@@H](CC(C)C)C(=O)N2CCC[C@H]2C(=O)N(C)[C@@H](Cc2ccc(OC)cc2)C(=O)O[C@@H]1C [Compound 19, N^α -Propionyldidemnin A] (Propionyl-[dNMeL]T[X1]LP[NMeY](Me); ester 2-C)', 'cytoxicity to lymphocytes LcV, LC50', '6.50 µg/mL'),
  ('CCCCCCCCCCCCCCCCCC(=O)N(C)[C@H](CC(C)C)C(=O)N[C@@H]1C(=O)N[C@H]([C@@H](C)CC)[C@@H](O)CC(=O)O[C@@H](C(C)C)C(=O)[C@H](C)C(=O)N[C@@H](CC(C)C)C(=O)N2CCC[C@H]2C(=O)N(C)[C@@H](Cc2ccc(OC)cc2)C(=O)O[C@@H]1C [Compound 25, N^α -Octadecanoyldidemnin A] (Stearoyl-[dNMeL]T[X1]LP[NMeY](Me); ester 2-C)', 'cytoxicity to lymphocytes LcV, LC50', '> 10 µg/mL'),
  ('CC[C@H](C)[C@H]1NC(=O)[C@@H](NC(=O)[C@@H](CC(C)C)N(C)C(C)=O)[C@@H](C)OC(=O)[C@H](Cc2ccc(OC)cc2)N(C)C(=O)[C@@H]2CCCN2C(=O)[C@H](CC(C)C)NC(=O)[C@@H](C)C(=O)[C@H](C(C)C)OC(=O)C[C@@H]1O [Compound 18, N^α -Acetyldidemnin A] (Ac-[dNMeL]T[X1]LP[NMeY](Me); ester 2-C)', 'cytoxicity to lymphocytes LcV, LC50', '> 10 µg/mL'),
  ('CC[C@H](C)[C@@H](NC(=O)[C@@H](NC(=O)[C@@H](CC(C)C)NC)[C@@H](C)O)[C@@H](O)CC(=O)O[C@H](C(=O)[C@H](C)C(=O)N[C@@H](CC(C)C)C(=O)N1CCC[C@H]1C(=O)N(C)[C@@H](Cc1ccc(OC)cc1)C(=O)O)C(C)C [Compound 17, Acyclodidemnin A] (H-[dNMeL]T[X1]LP[NMeY](Me)-OH)', 'cytoxicity to lymphocytes LcV, LC50', '> 10 µg/mL'),
  ('CC[C@H](C)[C@H]1NC(=O)[C@@H](NC(=O)[C@@H](CC(C)C)N(C)C(=O)[C@H]2CCCN2)[C@@H](C)OC(=O)[C@H](Cc2ccc(OC)cc2)N(C)C(=O)[C@@H]2CCCN2C(=O)[C@H](CC(C)C)NC(=O)[C@@H](C)C(=O)[C@H](C(C)C)OC(=O)C[C@@H]1O [Compound 29, N^α -(D-Pro)-Didemnin A] (H-[dP][dNMeL]T[X1]LP[NMeY](Me); ester 3-C)', 'cytoxicity to lymphocytes LcV, LC50', '> 10 µg/mL'),
  ('CC[C@H](C)[C@H]1NC(=O)[C@@H](NC(=O)[C@@H](CC(C)C)N(C)C(=O)[C@@H]2CCCN2)[C@@H](C)OC(=O)[C@H](Cc2ccc(OC)cc2)N(C)C(=O)[C@@H]2CCCN2C(=O)[C@H](CC(C)C)NC(=O)[C@@H](C)C(=O)[C@H](C(C)C)OC(=O)C[C@@H]1O [Compound 28, N^α -(L-Pro)Didemnin A] (H-P[dNMeL]T[X1]LP[NMeY](Me); ester 3-C)', 'cytoxicity to lymphocytes LcV, LC50', '> 10 µg/mL'),
  ('CC[C@H](C)[C@H]1NC(=O)[C@@H](NC(=O)[C@@H](CC(C)C)N(C)C(=O)[C@@H]2CCCN2C(=O)[C@H](C)O)[C@@H](C)OC(=O)[C@H](CC2CCCCC2)N(C)C(=O)[C@@H]2CCCN2C(=O)[C@H](CC(C)C)NC(=O)[C@@H](C)C(=O)[C@H](C(C)C)OC(=O)C[C@@H]1O [Compound 16, [H6 -N-MePhe^6]Didemnin B]', 'cytoxicity to lymphocytes LcV, LC50', '> 10 µg/mL'),
  ('CC[C@H](C)[C@H]1NC(=O)[C@@H](NC(=O)[C@@H](CC(C)C)N(C)C(=O)[C@@H]2CCCN2C(=O)[C@H](C)OC(=O)[C@H](CCC(N)=O)NC(=O)[C@H](CCC(N)=O)NC(=O)[C@H](CCC(N)=O)NC(=O)[C@@H]2CCC(=O)N2)[C@@H](C)OC(=O)[C@H](Cc2ccc(OC)cc2)N(C)C(=O)[C@@H]2CCCN2C(=O)[C@H](CC(C)C)NC(=O)[C@@H](C)C(=O)[C@H](C(C)C)OC(=O)C[C@@H]1O [Compound 40, Didemnin D] ([pGlu]QQQ[Lac]P[dNMeL]T[X1]LP[NMeY](Me); ester 8-C)', 'cytoxicity to lymphocytes LcV, LC50', '> 10 µg/mL');

====

Tested on: concanavalin A-induced lymphoblasts (Con A splenocytes)
Assay notes: Lymphoblast viability (LbV) assay
Condition notes: Con A-stimulated splenocytes (lymphoblasts), MTT
Numbered stars: 1 amine (or outer) side, 2 acyl side, 3 side chain; on linkers, the order of the positions; unused ones are H or OH. Bridge positions count the residues as written; N and C are the ends. Square brackets hold non-standard residues; d marks the D form. Peptide text beside a SMILES is read from it. * marks the point of attachment. X1 = CC[C@H](C)[C@@H](N[*:1])[C@@H](O)CC(=O)O[C@H](C(=O)[C@H](C)C(=O)[*:2])C(C)C; NMeY = CN[C@@H](Cc1ccc(O)cc1)C(=O)O; dNMeL = CN[C@H](CC(C)C)C(=O)O; Octanoyl = CCCCCCCC(=O)*
Measured parameter: cytotoxicity to lymphocytes LbV, LC50 (nM)

INSERT INTO assay_data (molecule, experimental_target, recorded_number) VALUES
  ('CCCCCCCC(=O)N(C)[C@H](CC(C)C)C(=O)N[C@@H]1C(=O)N[C@H]([C@@H](C)CC)[C@@H](O)CC(=O)O[C@@H](C(C)C)C(=O)[C@H](C)C(=O)N[C@@H](CC(C)C)C(=O)N2CCC[C@H]2C(=O)N(C)[C@@H](Cc2ccc(OC)cc2)C(=O)O[C@@H]1C [Compound 23, N^α -Octanoyldidemnin A] (Octanoyl-[dNMeL]T[X1]LP[NMeY](Me); ester 2-C)', 'concanavalin A-induced lymphoblasts (Con A splenocytes)', 21),
  ('CC[C@H](C)[C@H]1NC(=O)[C@@H](NC(=O)[C@@H](CC(C)C)N(C)C(=O)[C@@H]2CCCN2C(=O)[C@H](C)O)[C@@H](C)OC(=O)[C@H](CC2CCC(OC)CC2)N(C)C(=O)[C@@H]2CCCN2C(=O)[C@H](CC(C)C)NC(=O)[C@@H](C)C(=O)[C@H](C(C)C)OC(=O)C[C@@H]1O (stereo partly drawn) [Compound 15, [H6 Me2 Tyr6]Didemnin B]', 'concanavalin A-induced lymphoblasts (Con A splenocytes)', 1.6),
  ('CC[C@H](C)[C@H]1NC(=O)[C@@H](NC(=O)[C@@H](CC(C)C)N(C)C(=O)[C@@H](N)CC(C)C)[C@@H](C)OC(=O)[C@H](Cc2ccc(OC)cc2)N(C)C(=O)[C@@H]2CCCN2C(=O)[C@H](CC(C)C)NC(=O)[C@@H](C)C(=O)[C@H](C(C)C)OC(=O)C[C@@H]1O [Compound 27, N-(L-Leu)Didemnin A] (H-L[dNMeL]T[X1]LP[NMeY](Me); ester 3-C)', 'concanavalin A-induced lymphoblasts (Con A splenocytes)', 3.8);
